# System: Streptococcus sp. 'group A'
# assay_text: growth inhibition of control SK(-) GAS strain, dose response, counter-screen for streptokinase expression inhibitor project, luminescence, kanamycin, BacTiterGlo, confirmation (AID 1900)
# Format: functional, organism-based
Calls of active or inactive are those of the source. Rule as the data show it: actives have a measured EC50 and inactives only a lower limit.
value_kind: EC50

CCN1/C(=C/c2ccc3cc(C)ccc3[n+]2CC)Sc2cc(C)c(C)cc21; 8.22 µM (active)
O=c1cc(-c2ccccc2)[nH]n1-c1nc2ccccc2s1; 2.43 µM (active)
CC(C)C(=O)NC(c1ccco1)c1ccc2cccnc2c1O (configuration not stated); 3.15 µM (active)
O=[N+]([O-])c1ccc(O)c(/C=N/Nc2ccc(Cl)nn2)c1; 0.305 µM (active)
O=C(CSC(=S)N1CCCCC1)Nc1nc(-c2ccccc2)c(-c2ccccc2)o1; 1.51 µM (active)

Kindly note: Streptococcus sp. 'group A', N=C(N)c1ccc(OCCCCCOc2ccc(C(=N)N)cc2)cc1 , EC50 value reported: < 0.06 µM (active)

The observed EC50 for CC(=O)Oc1ccc(/C=N/NS(=O)(=O)c2ccccc2)cc1 when tested with Streptococcus sp. 'group A' stands at > 150 µM (not active)

Streptococcus sp. 'group A' data for O=C(NC(=S)Nc1ccc(Cl)c(C(=O)O)c1)c1cccc(COc2ccccc2)c1 ; its EC50: 13 µM (active)

EC50 on Streptococcus sp. 'group A' for Cc1cc(Br)c(OCc2ccc(C(=O)N/N=C3\CC4CC=CC34)cc2)c(Br)c1 (configuration not stated) is 4.08 µM (active)

Entry Cc1cc2oc(=O)cc(CN(C)Cc3ccccc3)c2cc1C(C)C : EC50 on Streptococcus sp. 'group A' = 13.3 µM (active)
